# System: HCC95
# ASSAY COMMENT: Growth inhibition of human HCC95 cells incubated for 3 days
# Type: functional, cell-based
# REPORTED CONDITIONS: HCC95, 72 h
Reported IC50 values follow for various compounds
REPORTED METRIC: IC50

> print(dat)
                                   compound  assayed.system  measured.result
1  O=C(O)CSc1cc(NS(=O)(=O)c2cccs2)c2ccccc2c1O           HCC95            13 µM
2  Cc1ccc(-c2csc(Cn3nc(CC(=O)O)c4ccccc4c3=O)n2)cc1           HCC95         > 100 µM
3  Cc1ccc(-c2csc(Cn3nc(Cc4nccs4)c4ccccc4c3=O)n2)cc1           HCC95            46 µM
4  Cc1ccc(-c2csc(Cn3nc(CC4OCC(=O)O4)c4ccccc4c3=O)n2)cc1 (stereo unspecified)           HCC95            40 µM
5  CCOC(=O)Cc1nn(Cc2nc(-c3ccc(C)cc3)cs2)c(=O)c2ccccc12           HCC95         > 100 µM
6  Cc1ccc(-c2csc(Cn3nc(CC4OCCCO4)c4ccccc4c3=O)n2)cc1           HCC95            45 µM

====

# ASSAY COMMENT: Half life in mouse plasma at 50 ug/ml at 37 degC at pH 7.4
# Assay type: ADME, cell-free
REPORTED METRIC: half-life at 50 ug/ml

> print(dat)
                                smiles.data        reported.metric  measured.result
1  CCOC(=O)Cc1nn(Cc2nc(-c3ccc(C)cc3)cs2)c(=O)c2ccccc12  half-life at 50 ug/ml          6.3 min

====

Reported half-life values follow for various compounds
# ASSAY COMMENT: Half life in C57BL6 mouse at 250 mg/kg, po dosed via gavage as single administration
# Assay type: ADME, organism-based
# REPORTED CONDITIONS: in vivo
REPORTED METRIC: half-life

> print(dat)
                                smiles.data  reported.metric  measured.result
1  Cc1ccc(-c2csc(Cn3nc(CC(=O)O)c4ccccc4c3=O)n2)cc1        half-life          780 min
2  CCOC(=O)Cc1nn(Cc2nc(-c3ccc(C)cc3)cs2)c(=O)c2ccccc12        half-life          360 min

====

# ASSAYED SYSTEM: UniProtKB P23141
# Sequence (P23141 whole entry): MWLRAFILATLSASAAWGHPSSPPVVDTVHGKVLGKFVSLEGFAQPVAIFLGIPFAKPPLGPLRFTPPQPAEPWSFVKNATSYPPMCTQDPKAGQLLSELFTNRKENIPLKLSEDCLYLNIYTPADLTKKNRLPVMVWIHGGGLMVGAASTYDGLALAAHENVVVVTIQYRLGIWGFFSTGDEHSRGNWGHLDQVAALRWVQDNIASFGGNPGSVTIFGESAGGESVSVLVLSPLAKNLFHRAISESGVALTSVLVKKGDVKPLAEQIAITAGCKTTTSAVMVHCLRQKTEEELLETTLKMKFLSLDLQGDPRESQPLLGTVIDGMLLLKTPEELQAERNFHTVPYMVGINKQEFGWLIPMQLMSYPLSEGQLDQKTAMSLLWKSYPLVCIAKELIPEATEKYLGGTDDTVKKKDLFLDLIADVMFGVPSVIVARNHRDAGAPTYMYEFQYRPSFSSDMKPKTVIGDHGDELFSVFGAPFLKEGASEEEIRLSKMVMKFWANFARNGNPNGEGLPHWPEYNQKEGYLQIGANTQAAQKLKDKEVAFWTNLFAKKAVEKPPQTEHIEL
# ASSAY COMMENT: Stability assessed as recombinant human carboxyesterase-1 mediated compound hydrolysis by measuring half life at 50 ug/ml at 37 degC at pH 7.4
# Format: ADME
# REPORTED CONDITIONS: recombinant human carboxylesterase-1, pH 7.4
REPORTED METRIC: half-life at 50 ug/ml (min)

> print(dat)
                                smiles.data  measured.result
1  CCOC(=O)Cc1nn(Cc2nc(-c3ccc(C)cc3)cs2)c(=O)c2ccccc12               19

====

# ASSAYED SYSTEM: carboxylesterase 2 (cocaine esterase) (Homo sapiens)
# Sequence (O00748 whole entry): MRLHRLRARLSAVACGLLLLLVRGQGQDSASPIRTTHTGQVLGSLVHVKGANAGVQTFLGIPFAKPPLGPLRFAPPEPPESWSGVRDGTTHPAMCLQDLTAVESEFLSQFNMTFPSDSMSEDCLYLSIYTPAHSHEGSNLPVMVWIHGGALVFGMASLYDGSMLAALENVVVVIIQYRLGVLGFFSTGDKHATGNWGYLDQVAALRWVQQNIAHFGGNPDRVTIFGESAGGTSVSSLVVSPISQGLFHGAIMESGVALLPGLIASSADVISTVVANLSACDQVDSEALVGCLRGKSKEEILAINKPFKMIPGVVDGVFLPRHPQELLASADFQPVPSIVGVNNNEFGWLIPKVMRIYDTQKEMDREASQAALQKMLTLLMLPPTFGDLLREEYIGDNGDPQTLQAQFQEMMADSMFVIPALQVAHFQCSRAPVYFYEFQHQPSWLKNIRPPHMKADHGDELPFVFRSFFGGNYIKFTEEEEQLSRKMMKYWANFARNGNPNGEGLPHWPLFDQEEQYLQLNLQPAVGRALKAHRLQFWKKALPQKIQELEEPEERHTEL
# ASSAY COMMENT: Stability assessed as recombinant human carboxyesterase-2 mediated compound hydrolysis by measuring half life at 50 ug/ml at 37 degC at pH 7.4
# Format: ADME
# REPORTED CONDITIONS: recombinant human carboxylesterase-2, pH 7.4
REPORTED METRIC: half-life at 50 ug/ml (min)

> print(dat)
                                smiles.data        reported.metric  measured.result
1  CCOC(=O)Cc1nn(Cc2nc(-c3ccc(C)cc3)cs2)c(=O)c2ccccc12  half-life at 50 ug/ml               99

====

# ASSAY COMMENT: Drug metabolism in C57BL6 mouse plasma assessed as Cmax for 2-(4-oxo-3-((4-p-tolylthiazol-2-yl)methyl)-3,4-dihydrophthalazin-1-yl)acetic acid at 250 mg/kg, po dosed via gavage as single administration
# Assay type: ADME, organism-based
# Design: dose 250 mg/kg, route oral
# REPORTED CONDITIONS: in vivo
REPORTED METRIC: Cmax (µM)

> print(dat)
                                smiles.data  quantity.unit  measured.result
1  CCOC(=O)Cc1nn(Cc2nc(-c3ccc(C)cc3)cs2)c(=O)c2ccccc12             µM              128

====

# ASSAY COMMENT: Plasma concentration in C57BL6 mouse at 250 mg/kg, po dosed via gavage as single administration
# Format: ADME, organism-based
# REPORTED CONDITIONS: in vivo
REPORTED METRIC: concentration (µM)

> print(dat)
                                smiles.data  measured.result
1  CCOC(=O)Cc1nn(Cc2nc(-c3ccc(C)cc3)cs2)c(=O)c2ccccc12                7

====

# ASSAYED SYSTEM: Connector enhancer of kinase suppressor of ras 1 (Homo sapiens, UniProt Q969H4)
# Sequence (Q969H4 whole entry): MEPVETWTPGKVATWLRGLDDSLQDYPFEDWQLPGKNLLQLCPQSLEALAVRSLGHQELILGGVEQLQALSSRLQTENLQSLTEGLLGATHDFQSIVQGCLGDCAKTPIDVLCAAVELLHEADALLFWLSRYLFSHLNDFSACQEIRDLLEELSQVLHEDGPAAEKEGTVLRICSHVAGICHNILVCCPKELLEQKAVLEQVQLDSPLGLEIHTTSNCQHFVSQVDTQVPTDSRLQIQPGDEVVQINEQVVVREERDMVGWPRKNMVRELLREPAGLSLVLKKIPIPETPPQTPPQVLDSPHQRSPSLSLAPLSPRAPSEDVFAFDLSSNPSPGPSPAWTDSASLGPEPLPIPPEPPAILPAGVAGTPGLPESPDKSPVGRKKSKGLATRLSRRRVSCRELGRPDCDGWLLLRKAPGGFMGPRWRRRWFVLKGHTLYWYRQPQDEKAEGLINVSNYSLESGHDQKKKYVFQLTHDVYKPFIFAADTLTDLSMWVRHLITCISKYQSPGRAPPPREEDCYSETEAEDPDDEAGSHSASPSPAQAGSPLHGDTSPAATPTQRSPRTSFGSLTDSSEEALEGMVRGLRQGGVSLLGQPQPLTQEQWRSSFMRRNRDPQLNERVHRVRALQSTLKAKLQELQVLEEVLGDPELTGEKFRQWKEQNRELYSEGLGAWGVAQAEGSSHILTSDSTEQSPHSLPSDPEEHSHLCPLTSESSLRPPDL
# ASSAY COMMENT: Binding affinity to CNKSR1 PH-domain (unknown origin) by SPR spectroscopy
# REPORTED CONDITIONS: read-out: Kd
REPORTED METRIC: log10(Kd) (log10 of the value in nM)

> print(dat)
                                   compound  reported.metric  measured.result
1    O=C(O)CCc1ccc(-c2ccc(Br)cc2)n1CCC(=O)O        log10(Kd)            -0.71
2  O=C(O)COc1cc(OCC(=O)O)c2c3c(c(=O)oc2c1)CCCC3        log10(Kd)             3.05
3  O=C(O)CSc1cc(NS(=O)(=O)c2cccs2)c2ccccc2c1O        log10(Kd)             3.56
4  O=C(O)c1ccc2c(c1)C1C=CCC1C(C(=O)O)N2 (stereo unspecified)        log10(Kd)             3.73
5  Cc1ccc(-c2nc(SCC(=O)O)c3c(=O)n(C)c(=O)n(C)c3n2)cc1        log10(Kd)             3.00

====

# ASSAYED SYSTEM: RAC-alpha serine/threonine-protein kinase (Homo sapiens, UniProt P31749)
# Sequence (P31749 whole entry): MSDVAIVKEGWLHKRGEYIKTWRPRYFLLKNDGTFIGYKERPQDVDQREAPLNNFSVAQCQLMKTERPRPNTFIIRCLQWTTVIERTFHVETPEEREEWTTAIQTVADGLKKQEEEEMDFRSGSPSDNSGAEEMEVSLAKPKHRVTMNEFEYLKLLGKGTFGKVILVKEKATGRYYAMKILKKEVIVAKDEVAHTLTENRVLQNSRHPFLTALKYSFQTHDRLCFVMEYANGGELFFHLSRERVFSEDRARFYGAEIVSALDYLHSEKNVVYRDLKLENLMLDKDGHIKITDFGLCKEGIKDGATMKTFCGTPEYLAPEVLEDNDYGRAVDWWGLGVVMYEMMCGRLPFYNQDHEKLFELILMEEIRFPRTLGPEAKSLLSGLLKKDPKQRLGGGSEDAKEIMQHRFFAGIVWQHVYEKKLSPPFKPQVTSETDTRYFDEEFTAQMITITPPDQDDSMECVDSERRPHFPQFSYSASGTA
# ASSAY COMMENT: Binding affinity to AKT PH-domain (unknown origin) at 0.01 to 50 uM by SPR spectroscopy
# REPORTED CONDITIONS: read-out: Kd
pKd: −log10 of the molar value.
REPORTED METRIC: pKd

> print(dat)
                                   compound  measured.result
1  Cc1ccc(-c2nc(SCC(=O)O)c3c(=O)n(C)c(=O)n(C)c3n2)cc1             5.89
2  O=C(O)c1ccc2c(c1)C1C=CCC1C(C(=O)O)N2 (configuration not stated)             9.32

====

# ASSAY COMMENT: Terminal half life in iv dosed mouse
# Format: ADME, organism-based
# REPORTED CONDITIONS: in vivo, read-out: beta t1/2
Reported log10 of half-life values follow for various compounds
REPORTED METRIC: log10 of half-life (log10 of the value in h)

> print(dat)
                                smiles.data     reported.metric  measured.result
1  Cc1ccc(-c2csc(Cn3nc(CC=O)c4ccccc4c3=O)n2)cc1  log10 of half-life            -0.23
2  Cc1ccc(-c2csc(Cn3nc(CC(=O)O)c4ccccc4c3=O)n2)cc1  log10 of half-life             0.08
3  Cc1ccc(-c2csc(Cn3nc(CC(=O)N4CCN(C)CC4)c4ccccc4c3=O)n2)cc1  log10 of half-life             0.74
4  CCOC(=O)Cc1nn(Cc2nc(-c3ccc(C)cc3)cs2)c(=O)c2ccccc12  log10 of half-life            -1.30
5  CCNC(=O)Cc1nn(Cc2nc(-c3ccc(C)cc3)cs2)c(=O)c2ccccc12  log10 of half-life            -0.33
6  Cc1ccc(-c2csc(Cn3nc(Cc4nccs4)c4ccccc4c3=O)n2)cc1  log10 of half-life             0.61
7  Cc1ccc(-c2csc(Cn3nc(CC4OCCCO4)c4ccccc4c3=O)n2)cc1  log10 of half-life             0.64
